# System Name: Human PI3Kα (Homo sapiens)
# Construct: purchased Millipore Corporation 14-602
# Sequence (P42336 whole entry): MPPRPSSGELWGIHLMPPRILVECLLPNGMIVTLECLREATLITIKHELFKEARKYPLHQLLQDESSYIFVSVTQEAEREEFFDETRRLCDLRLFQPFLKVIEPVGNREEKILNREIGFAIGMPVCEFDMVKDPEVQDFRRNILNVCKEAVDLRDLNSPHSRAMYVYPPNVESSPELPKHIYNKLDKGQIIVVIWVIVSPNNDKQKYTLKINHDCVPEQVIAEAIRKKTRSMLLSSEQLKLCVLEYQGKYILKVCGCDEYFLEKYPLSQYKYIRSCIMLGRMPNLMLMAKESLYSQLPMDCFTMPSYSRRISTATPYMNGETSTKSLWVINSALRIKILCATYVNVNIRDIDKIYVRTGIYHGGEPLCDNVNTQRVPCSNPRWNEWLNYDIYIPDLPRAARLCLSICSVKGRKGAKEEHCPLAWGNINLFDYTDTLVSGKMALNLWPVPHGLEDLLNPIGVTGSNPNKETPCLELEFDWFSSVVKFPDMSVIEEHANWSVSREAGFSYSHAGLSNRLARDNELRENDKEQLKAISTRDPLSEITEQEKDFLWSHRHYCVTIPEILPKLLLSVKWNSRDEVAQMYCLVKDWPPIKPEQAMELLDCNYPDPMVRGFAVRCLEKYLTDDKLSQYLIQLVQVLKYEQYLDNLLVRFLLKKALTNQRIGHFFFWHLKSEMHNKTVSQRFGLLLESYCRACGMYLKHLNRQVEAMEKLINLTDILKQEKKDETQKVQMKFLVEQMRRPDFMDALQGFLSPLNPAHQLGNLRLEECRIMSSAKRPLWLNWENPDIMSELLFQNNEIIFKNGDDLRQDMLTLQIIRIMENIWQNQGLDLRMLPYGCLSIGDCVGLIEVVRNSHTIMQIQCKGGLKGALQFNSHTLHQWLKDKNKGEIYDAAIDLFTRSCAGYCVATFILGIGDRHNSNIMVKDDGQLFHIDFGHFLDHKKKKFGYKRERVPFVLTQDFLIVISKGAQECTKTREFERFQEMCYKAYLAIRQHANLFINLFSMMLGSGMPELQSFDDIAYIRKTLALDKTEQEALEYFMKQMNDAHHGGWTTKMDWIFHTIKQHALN
# Sequence (P27986 whole entry partner): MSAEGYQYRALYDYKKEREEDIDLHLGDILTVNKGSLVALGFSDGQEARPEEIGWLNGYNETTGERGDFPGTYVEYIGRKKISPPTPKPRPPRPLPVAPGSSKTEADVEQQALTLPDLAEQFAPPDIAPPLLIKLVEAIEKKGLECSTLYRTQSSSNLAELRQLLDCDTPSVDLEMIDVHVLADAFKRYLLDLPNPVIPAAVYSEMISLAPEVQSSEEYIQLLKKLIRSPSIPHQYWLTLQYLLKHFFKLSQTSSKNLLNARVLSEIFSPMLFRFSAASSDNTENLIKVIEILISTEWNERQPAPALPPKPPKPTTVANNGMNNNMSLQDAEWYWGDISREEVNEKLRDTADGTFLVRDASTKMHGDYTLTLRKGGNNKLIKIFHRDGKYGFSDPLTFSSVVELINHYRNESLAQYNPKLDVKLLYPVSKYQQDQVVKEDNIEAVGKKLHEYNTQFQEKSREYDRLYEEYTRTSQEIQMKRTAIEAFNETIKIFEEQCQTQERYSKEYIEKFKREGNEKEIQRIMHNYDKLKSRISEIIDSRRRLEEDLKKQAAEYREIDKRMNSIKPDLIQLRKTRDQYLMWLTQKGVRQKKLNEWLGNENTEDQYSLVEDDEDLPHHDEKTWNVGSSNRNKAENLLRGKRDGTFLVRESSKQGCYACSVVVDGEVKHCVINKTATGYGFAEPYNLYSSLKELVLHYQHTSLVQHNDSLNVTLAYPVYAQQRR
# Method: PI3Kα enzyme inhibitory activity (Kinase-Glo Plus luminescence)
# Assay type: biochemical
# Experimental Parameters: Human PI3Kα 12 ng/well, phosphatidylinositol 0.2 μg/well, 37° C. for 3 hours
Structures can show the parent of a compound that is named as a salt.
Recorded IC50 by entry

Compound	IC50
O=C(NCCN1CCOCC1)N[C@H]1CC[C@H](Nc2nc(N3CCOCC3)nc(-n3c(C(F)F)nc4ccccc43)n2)CC1	330 nM
CC(N(C)[C@H]1CC[C@H](CNc2nc(N3CCOC[C@@H]3C)cc(-n3c(C(F)F)nc4ccccc43)n2)CC1)C(C)(C)O (some centres unmarked)	450 nM
N[C@H]1CC[C@H](Nc2nc(N3CCOCC3)nc(-n3c(C(F)F)nc4ccccc43)n2)CC1	990 nM
FC(F)c1nc2ccccc2n1-c1cc(N2CCOCC2)nc(NC[C@H]2CC[C@H](N3CCCCC3)CC2)n1	> 3000 nM
CN(C)CC(=O)N[C@H]1CC[C@H](Nc2nc(N3CCOCC3)nc(-n3c(C(F)F)nc4ccccc43)n2)CC1	1200 nM
O=S1(=O)CCN([C@H]2CC[C@H](CNc3nc(N4CCOCC4)cc(-n4c(C(F)F)nc5ccccc54)n3)CC2)CC1	1500 nM
O=S1(=O)CCCN1[C@H]1CC[C@H](COc2cc(-n3c(C(F)F)nc4ccccc43)nc(N3CCOCC3)n2)CC1	2800 nM
COC[C@@H]1CCCN1[C@H]1CC[C@@H](CNc2cc(-n3c(C(F)F)nc4ccccc43)nc(N3CCOCC3)n2)CC1	> 10000 nM
CCOCCN(C)[C@H]1CC[C@H](CNc2nc(N3CCOCC3)cc(-n3c(C(F)F)nc4ccccc43)n2)CC1	2900 nM
FC(F)c1nc2ccccc2n1-c1cc(OC[C@H]2CC[C@H](N3CCOCC3)CC2)nc(N2CCOCC2)n1	> 3000 nM
CCCN(CCC)[C@H]1CC[C@H](CNc2nc(N3CCOCC3)cc(-n3c(C(F)F)nc4ccccc43)n2)CC1	3500 nM
CN(CC(C)(C)O)[C@H]1CC[C@H](CNc2cc(-n3c(C(F)F)nc4ccccc43)nc(N3CCOCC3)n2)CC1	6700 nM
FC[C@@H]1CCCN1[C@H]1CC[C@H](COc2cc(-n3c(C(F)F)nc4ccccc43)nc(N3CCOCC3)n2)CC1	3400 nM
CCN(CC(C)(C)O)[C@H]1CC[C@H](CNc2nc(N3CCOC[C@H]3C)cc(-n3c(C(F)F)nc4ccccc43)n2)CC1	610 nM
COCCCN(C)[C@H]1CC[C@H](CNc2nc(N3CCOCC3)cc(-n3c(C(F)F)nc4ccccc43)n2)CC1	2500 nM
C#CCN(CC#C)[C@H]1CC[C@H](CNc2nc(N3CCOCC3)cc(-n3c(C(F)F)nc4ccccc43)n2)CC1	4200 nM
O=C1CCCN1[C@H]1CC[C@H](Nc2nc(N3CCOCC3)cc(-n3c(C(F)F)nc4ccccc43)n2)CC1	930 nM
CN(C)CC(=O)N[C@H]1CC[C@H](Oc2cc(-n3c(C(F)F)nc4ccccc43)nc(N3CCOCC3)n2)CC1 [Example 24, hydrochloride]	> 3000 nM
C#CCN(CC(C)(C)O)[C@H]1CC[C@H](CNc2nc(N3CCOCC3)cc(-n3c(C(F)F)nc4ccccc43)n2)CC1	2300 nM
CC(C)(O)CN(CC(C)(C)O)[C@H]1CC[C@H](CNc2nc(N3CCOCC3)cc(-n3c(C(F)F)nc4ccccc43)n2)CC1	2300 nM
